biological target: SARS-CoV-2 MPro (main protease, 3CL protease, Nsp5) (Severe acute respiratory syndrome coronavirus 2); construct: gene rep; assay: fluorogenic NSP7 peptide cleavage, […] h preincubation, […] °C; format: biochemical
assay_metric: pIC50
The meaning of pIC50 here: minus log10 of the concentration in molar units.

Known pIC50 results, listed for orientation:
O=C(Cc1cncc2ccccc12)N1CCOc2ccc(Cl)cc2C1 [Z4946671001]    5.30
O=C(Cc1cccnc1)N(Cc1ccccn1)c1ccc(Cl)cc1 [ZINC346371112]    4.01
CSc1ccncc1NC(=O)C(=O)c1ccc(F)cc1 [Z1669286714]    3.96
O=C1CN(Cc2ccc(F)cc2)C(=O)N1c1cncc2ccccc12 ['5548]    4.52

With those in mind, consider the next compound.
Give the measured pIC50 of O=Cc1cncc(C(=O)N2CCCC2c2cccc3ccccc23)c1 (centres unmarked) ['0292] . 4.00

---

molecular target: SARS-CoV-2 MPro (main protease, 3CL protease, Nsp5) (Severe acute respiratory syndrome coronavirus 2, UniProt P0DTD1); construct: gene rep; assay: fluorogenic NSP7 peptide cleavage, […] h preincubation, […] °C; format: biochemical
assay_metric: pIC50
// scale note: pIC50 = -log10(conc_M); give the bare number

Cc1ccc(COc2cc(Br)cnc2C=O)cc1[N+](=O)[O-]    4.92
O=Cc1ncc(Br)cc1OCc1ccc(Cl)cc1    4.66
O=C1N[C@@]2(CCc3ccccc32)C(=O)N1c1cncc2ccccc12    4.60
COc1cc(C=O)c(OS(=O)(=O)CC2CCCCC2)cc1OC    3.84

Query compound follows.
Can you look up the measured pIC50 of O=Cc1ncc(Br)cc1OCc1ccc2c(c1)COC2 for me? 4.26

---

target: SARS-CoV-2 MPro (main protease, 3CL protease, Nsp5) (Severe acute respiratory syndrome coronavirus 2, UniProt P0DTD1); construct: gene rep; assay: fluorogenic NSP7 peptide cleavage, […] h preincubation, […] °C; format: biochemical
pIC50: −log10 of the molar value.
# cutoff 4 applies to pIC50; >= gives Met, < gives Not met

Some entries whose results are on file:
Cc1ccc(F)cc1C(=O)C(=O)Nc1cncc(Br)c1C    Met
CC1(C)CN(C(=O)Nc2cncc3ccccc23)Cc2cc(Br)ccc2O1    Met
CC1(Cc2ccc(F)cc2)CCCN1c1ncc(C=O)cn1 (stereo not shown)    Not met
O=Cc1ncc(Br)cc1OCc1cc(Br)ccc1Cl    Met

Below: the item to evaluate.
Test whether the compound CC1CCC2(NC(=O)N(c3cncc4ccccc34)C2=O)c2ccccc21 (stereo not shown) records pIC50 of 4 or higher. Met

---

biological target: SARS-CoV-2 MPro (main protease, 3CL protease, Nsp5) (Severe acute respiratory syndrome coronavirus 2, UniProt P0DTD1); construct: gene rep; assay: fluorogenic NSP7 peptide cleavage, […] h preincubation, […] °C; type: biochemical
Let's look at some compounds and their measured log10 IC50.
Would you kindly interpret these values as log10 of IC50 expressed in µM?

Before answering, review these 5 worked examples.
CC1CN(C(=O)CCn2cc(Br)ccc2=O)Cc2ccccc2O1 (stereo not shown)    1.94
O=Cc1ncc(Br)cc1OCc1ccc(Cl)c(Br)c1    0.78
Cc1noc(C)c1CCCNc1nc(-c2ccncc2)nc2ccccc12    1.80
O=C1CCN(Cc2cccs2)C(=O)N1Cc1ccc[nH]c1=O    1.46
N#CC(C(=O)c1ccc([N+](=O)[O-])o1)c1cccnc1 (stereo not shown)    1.30

Can you look up the measured log10 IC50 of O=Cc1ncc(Br)cc1OCc1ccc(Cl)c([N+](=O)[O-])c1 for me? 0.00

Quick check: log10 IC50 of N#Cc1ccc(Br)c(COc2cc(Br)cnc2C=O)c1 ? 0.30

Reported log10 IC50, compound O=Cc1ncc(Br)cc1OCc1cc(Cl)cc(Br)c1 : ____ 0.85

Entry O=Cc1ncc(Br)cc1OCc1cccc([N+](=O)[O-])c1Cl : reported log10 IC50 = ? 1.52

Taken from paper doi:10.1101/2022.07.05.498881v1.
